target-entity: human PRMT6 (Homo sapiens, UniProt Q96LA8)
Construct: Flag-PRMT6-His; made in house; host or cells: HEK 293F cells (BacMam baculovirus)
Sequence (Q96LA8 with tags, fused parts or gaps): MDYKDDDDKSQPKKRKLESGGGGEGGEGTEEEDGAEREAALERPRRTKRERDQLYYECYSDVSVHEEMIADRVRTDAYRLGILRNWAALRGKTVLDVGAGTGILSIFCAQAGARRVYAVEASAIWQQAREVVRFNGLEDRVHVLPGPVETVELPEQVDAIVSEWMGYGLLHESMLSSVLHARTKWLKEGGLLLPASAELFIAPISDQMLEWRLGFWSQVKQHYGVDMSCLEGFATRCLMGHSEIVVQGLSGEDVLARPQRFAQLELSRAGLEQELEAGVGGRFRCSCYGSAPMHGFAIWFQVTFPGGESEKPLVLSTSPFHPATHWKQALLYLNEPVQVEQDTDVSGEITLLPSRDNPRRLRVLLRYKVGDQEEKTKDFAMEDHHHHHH
measurement-notes: PRMT6 Biochemical Assay (3H-SAM Flashplate, peptide substrate)
particulars: Biochemical IC50 PRMT6, single experiment or average of multiple experiments
Cut-off 30 nM on IC50: below means condition met, at or above means condition not met.

Answered cases to consult:
CNCCN(C)Cc1cn[nH]c1-c1cc(F)cc(F)c1 [Compound 18]: condition met
CC(C)Cc1ccc(-c2c[nH]nc2CN(C)CCN)cc1 [Compound 170]: condition not met
COCCn1cnc(-c2ccc(C#N)cc2)c1CN(C)CCN [Compound 223]: condition not met
CCN(CCN)Cc1c[nH]nc1-c1ccc(F)cc1 [Compound 62]: condition met
CN(CCN)Cc1n[nH]cc1-c1ccc(F)cc1 [Compound 69]: condition not met
CNCCN(C)Cc1n[nH]cc1-c1cc(C(C)C)cc(C(C)C)c1 [Compound 242]: condition not met
CNCCN(C)Cc1c[nH]nc1-c1ccc(F)c(F)c1 [Compound 51]: condition met
CNCCN(C)Cc1c[nH]nc1-c1ccc(OC2CCOCC2)c(Cl)c1 [Compound 292]: condition not met
CCN(CC)C(=O)c1ccc(-c2n[nH]cc2CN(C)CCN)cc1 [Compound 143]: condition not met
CCC(COC)Oc1ccc(-c2n[nH]cc2CN(C)CCNC)cc1 (stereo not drawn) [Compound 310]: condition not met

INPUT: In the record for CNCCN(C)Cc1n[nH]cc1-c1ccc(Oc2cccc(F)c2)cc1 [Compound 270] , is IC50 less than 30 nM?
OUTPUT: condition met

INPUT: is_below(IC50, 30 nM) for CN(CCN)Cc1c[nH]nc1-c1ccc(OC(F)(F)F)cc1 [Compound 93] ?
OUTPUT: condition met

INPUT: Identify whether the compound CNCCN(C)Cc1c[nH]nc1-c1ccc(Oc2cccc(C(=O)N(C)C)c2)cc1 [Compound 264] records IC50 below 30 nM.
OUTPUT: condition met

INPUT: Report whether reported IC50 is lower than 30 nM (strictly) for CN(CCN)Cc1c[nH]nc1-c1ccc(C#N)cc1 [Compound 68]
OUTPUT: condition met

INPUT: Criterion: IC50 strictly below 30 nM. Is it met by CN(CCN)Cc1cn(C)nc1-c1ccc(F)cc1 [Compound 3] ?
OUTPUT: condition met

INPUT: Please indicate whether the reported IC50 of CN(CCN)Cc1cnn(C2COC2)c1-c1ccc(F)cc1 [Compound 81] is strictly below 30 nM.
OUTPUT: condition not met

###

target-entity: human PRMT8 (Homo sapiens)
Sequence (Q9NR22 whole entry): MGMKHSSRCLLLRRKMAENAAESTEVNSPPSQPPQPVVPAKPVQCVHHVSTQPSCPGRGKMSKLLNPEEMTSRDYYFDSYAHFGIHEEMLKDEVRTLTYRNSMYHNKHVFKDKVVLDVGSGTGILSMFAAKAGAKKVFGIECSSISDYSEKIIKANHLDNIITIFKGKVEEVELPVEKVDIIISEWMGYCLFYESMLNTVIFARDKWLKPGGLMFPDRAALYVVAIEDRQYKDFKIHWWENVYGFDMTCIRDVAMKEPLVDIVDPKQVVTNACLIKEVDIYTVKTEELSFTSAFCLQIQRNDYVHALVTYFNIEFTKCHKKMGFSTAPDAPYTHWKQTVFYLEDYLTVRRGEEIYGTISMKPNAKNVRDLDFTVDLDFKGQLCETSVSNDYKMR
measurement-notes: PRMT8 Biochemical Assay (3H-SAM Flashplate, peptide substrate)
particulars: single experiment or average of multiple experiments
pIC50: −log10 of the molar value.
# binarize pIC50: threshold 6 inclusive, high side 1, low side 0

CNCCN(C)Cc1c[nH]nc1-c1cccc(N)c1: 0
CNCCN(C)Cc1c[nH]nc1-c1ccc(OC(CO)C(C)C)cc1 (stereo not drawn): 1
CN(CCNC1CC1)Cc1c[nH]nc1-c1ccc(C#N)cc1: 0
CN(CCN)Cc1c[nH]nc1-c1ccc(Oc2ccccc2)c(C(=O)N(C)C)c1: 0

Turning to the following compound.
INPUT: State whether the measured pIC50 reaches 6, counting equality as reaching it, for CNCCN(C)Cc1cn(CCCC(O)CO)nc1-c1ccc(F)cc1 (stereo not drawn)
OUTPUT: 0
